Data credit: the supplement of paper PMC11208160

Test Details: recombinant UMI read abundance after kanamycin selection (control-corrected) (log10(CPM+1)); higher = more efficient recombination; extreme values may be limits of the assay; sequences stand for … in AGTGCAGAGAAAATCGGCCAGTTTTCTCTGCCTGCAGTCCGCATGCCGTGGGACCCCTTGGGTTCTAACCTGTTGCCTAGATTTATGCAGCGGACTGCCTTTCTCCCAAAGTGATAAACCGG…AGGTTGGTTTCACT; site = the 11-nt donor
Use 0.1 as the dividing line for recombinant UMI read abundance (log10), with the line itself on the 1 (yes) side and lower values as 0 (no).

{"columns": ["Primary Sequence", "Category"],
 "data": [
  ["AGCCATTCATGGACCGGTTTTCCCGGTAATCCGTATTTGAC (site AGCCCTTCTGT)", "0 (no)"],
  ["CGTGCAACATGGACCGGTTTTCCCGGTAATCCGTATTTGTT (site CGTGAAACTAA)", "0 (no)"],
  ["AGGTTCCCATGGACCGGTTTTCCCGGTAATCCGTATTTGTA (site AGGTTCCCTAA)", "0 (no)"],
  ["ATCCAAGCATGGACCGGTTTTCCCGGTAATCCGTATTTGAG (site ATCAAAGCTCT)", "1 (yes)"],
  ["AGCCTAGCATGGACCGGTTTTCCCGGTAATCCGTATTTGGT (site AGCCTAGCTAG)", "0 (no)"],
  ["TCAGGTACATGGACCGGTTTTCCCGGTAATCCGTATTTGCA (site TCAGGTACTTG)", "1 (yes)"],
  ["CTCCTCTCATGGACCGGTTTTCCCGGTAATCCGTATTTGTA (site CTCCTCTCTTA)", "1 (yes)"],
  ["GAGCGCACATGGACCGGTTTTCCCGGTAATCCGTATTTGAT (site GAGCTCACTAT)", "1 (yes)"],
  ["GCCGCACCATGGACCGGTTTTCCCGGTAATCCGTATTTGGA (site GCCGCACCTTC)", "0 (no)"]
]}

====

Test Details: recombinant barcode read abundance after kanamycin selection (control-corrected) (log10(CPM+1)); higher = more efficient recombination; sequences stand for … in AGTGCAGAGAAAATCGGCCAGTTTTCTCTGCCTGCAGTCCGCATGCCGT…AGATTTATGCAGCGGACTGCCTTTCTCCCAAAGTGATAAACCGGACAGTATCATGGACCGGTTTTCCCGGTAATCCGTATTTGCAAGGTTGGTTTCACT; site = the 11-nt target
Reported Metric: recombinant barcode read abundance (log10)

{"columns": ["Primary Sequence", "Experimental Value"],
 "data": [
  ["GTTCGGACTTGGGTTCTAACCTGTTGCGG (site GATCGGACTCC)", 0.634],
  ["CTATGACCTTGGGTTCTAACCTGTTGCAT (site CTATGACCTAG)", 0.19],
  ["GTTGGAGCTTGGGTTCTAACCTGTTGCAG (site GTTGGAGCTCT)", 2.24],
  ["ATAATAGCTTGGGTTCTAACCTGTTGCCT (site ATAAAAGCTAG)", 0.0804],
  ["CACACTCCTTGGGTTCTAACCTGTTGCAG (site CACACTCCTCT)", 0.498],
  ["TTGAGGACTTGGGTTCTAACCTGTTGCGT (site TTGAGGACTTG)", 0.147],
  ["ACCGAGACTTGGGTTCTAACCTGTTGCCT (site ACCGTGACTAG)", 0.0449],
  ["TCCCAGCCTTGGGTTCTAACCTGTTGCTG (site TCCCAGCCTCA)", 0.0849],
  ["ATTGGGTCTTGGGTTCTAACCTGTTGCCT (site ATTGGATCTAG)", 0.445],
  ["ACAGGTTCTTGGGTTCTAACCTGTTGCCT (site AAAGGTTCTAG)", 0.0508],
  ["CTACTAGCTTGGGTTCTAACCTGTTGCAT (site CTACTAGCTCT)", 0.115],
  ["GGTGGGTCTTGGGTTCTAACCTGTTGCCT (site GGTGGGTCTAG)", 1.29],
  ["AAAGGTCCTTGGGTTCTAACCTGTTGCAG (site CTTTAGTCTTA)", 0.0927],
  ["GTTCGGACTTGGGTTCTAACCTGTTGCGG (site GTTCGGACTCC)", 2.69],
  ["ACACTGGCTTGGGTTCTAACCTGTTGCCT (site ACCCTGGCTAG)", 0.0877],
  ["ACATTAGCTTGGGTTCTAACCTGTTGCTG (site ACACTAGCTCA)", 0.0561],
  ["CTAGACTCTTGGGTTCTAACCTGTTGCAA (site CTAGACTCTGT)", 0.0566],
  ["GGTTGACCTTGGGTTCTAACCTGTTGCGG (site GGTTGGCCTCC)", 0.0632],
  ["TTGGCAGCTTGGGTTCTAACCTGTTGCCT (site TTGGGAGCTAG)", 0.11],
  ["GTCGGCGCTTGGGTTCTAACCTGTTGCCT (site GTAGGCGCTAG)", 0.107],
  ["ATAAGAGCTTGGGTTCTAACCTGTTGCCT (site ATAAAAGCTAG)", 0.385]
]}

====

Test Details: recombinant UMI read abundance after kanamycin selection (control-corrected) (log10(CPM+1)); higher = more efficient recombination; extreme values may be limits of the assay; sequences stand for … in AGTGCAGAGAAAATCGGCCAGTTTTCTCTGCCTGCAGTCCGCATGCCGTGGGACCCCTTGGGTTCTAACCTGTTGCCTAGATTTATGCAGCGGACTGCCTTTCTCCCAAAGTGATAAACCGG…AGGTTGGTTTCACT; site = the 11-nt donor
Reported Metric: recombinant UMI read abundance (log10)

{"columns": ["Primary Sequence", "Experimental Value"],
 "data": [
  ["CGATGGACATGGACCGGTTTTCCCGGTAATCCGTATTTGTT (site CGATAGACTAA)", 1.25],
  ["CCAGTATCATGGACCGGTTTTCCCGGTAATCCGTATTTGCA (site CCAGTATCTTG)", 2.21],
  ["GGGGCACCATGGACCGGTTTTCCCGGTAATCCGTATTTGTA (site GGGGCACCTTA)", 0],
  ["TATGTGGCATGGACCGGTTTTCCCGGTAATCCGTATTTGTG (site TATGTGGCTCA)", 0.00847],
  ["AGAAATGCATGGACCGGTTTTCCCGGTAATCCGTATTTGCC (site AGAAATGCTGG)", 1.67]
]}

====

Test Details: recombinant barcode read abundance after kanamycin selection (control-corrected) (log10(CPM+1)); higher = more efficient recombination; sequences stand for … in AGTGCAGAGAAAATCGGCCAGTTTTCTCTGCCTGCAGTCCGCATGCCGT…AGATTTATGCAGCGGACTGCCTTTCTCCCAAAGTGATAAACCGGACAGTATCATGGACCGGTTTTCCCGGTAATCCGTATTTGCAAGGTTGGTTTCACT; site = the 11-nt target
Reported Metric: recombinant barcode read abundance (log10)

{"columns": ["Primary Sequence", "Experimental Value"],
 "data": [
  ["ATAAGAGCTTGGGTTCTAACCTGTTGCCT (site ATAAGAGCTAG)", 1.15],
  ["GAAATTCCTTGGGTTCTAACCTGTTGCCT (site GAAACTCCTAG)", 0.266],
  ["AATACCACTTGGGTTCTAACCTGTTGCCT (site AATCGCACTAG)", 0.186],
  ["GTGCGCCCTTGGGTTCTAACCTGTTGCGT (site GTGCGCCCTAC)", 2.13],
  ["GGCCGGGCTTGGGTTCTAACCTGTTGCCT (site GGCCGGACTAG)", 0.143]
]}

====

Test Details: recombinant barcode read abundance after kanamycin selection (control-corrected) (log10(CPM+1)); higher = more efficient recombination; sequences stand for … in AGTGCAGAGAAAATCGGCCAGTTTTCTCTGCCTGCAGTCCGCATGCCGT…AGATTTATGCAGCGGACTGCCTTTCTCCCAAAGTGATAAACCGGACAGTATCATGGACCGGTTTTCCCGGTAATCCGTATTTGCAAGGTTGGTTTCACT; site = the 11-nt target
Property: recombinant barcode read abundance (log10); scope: individual sequences
Reported Metric: recombinant barcode read abundance (log10)

{"columns": ["Primary Sequence", "Experimental Value"],
 "data": [
  ["GTTTATACTTGGGTTCTAACCTGTTGCGT (site GATGATACTAC)", 0.0203],
  ["AGTCCACCTTGGGTTCTAACCTGTTGCCT (site GGTCCACCTAG)", 0.132],
  ["TATTGGACTTGGGTTCTAACCTGTTGCAC (site TATTGGACTTT)", 0.0673],
  ["GAGAGAGCTTGGGTTCTAACCTGTTGCAT (site GAGAGAGCTAT)", 1.41],
  ["AATGAATCTTGGGTTCTAACCTGTTGCCT (site AATGCATCTAG)", 0.255],
  ["GGCAACTCTTGGGTTCTAACCTGTTGCCT (site GGCAACTCTAG)", 0.0853],
  ["GAGGGTACTTGGGTTCTAACCTGTTGCAT (site GAGAGTACTAT)", 1.16],
  ["GTCTTCCCTTGGGTTCTAACCTGTTGCCG (site GTCTTCCCTCG)", 1.5],
  ["TAGTATCCTTGGGTTCTAACCTGTTGCCT (site TAGTAAGCTAG)", 0.433],
  ["AACGAGTCTTGGGTTCTAACCTGTTGCCT (site ATCGAGTCTAG)", 0.244],
  ["ATCACGTCTTGGGTTCTAACCTGTTGCCT (site ATCACGTCTAG)", 1.4],
  ["ATACCACCTTGGGTTCTAACCTGTTGCCT (site ACACCACCTAG)", 1.24],
  ["CATCGGACTTGGGTTCTAACCTGTTGCTA (site CATTGTACTTA)", 0.347],
  ["CTGCGCCCTTGGGTTCTAACCTGTTGCCT (site CTGGGCCCTAG)", 0.249],
  ["CGGGGCCCTTGGGTTCTAACCTGTTGCTT (site GACTAGTCTCT)", 0.167],
  ["GGGCTGTCTTGGGTTCTAACCTGTTGCTT (site GGGCTGTCTAA)", 0.705]
]}
